Target: T1, monkey TIM-3 extracellular domain protein with hFc tag (cTIM-3-hFc) (monkey)
T1 construct: not shown: human IgG Fc fragment (hFc) of the pCpC vector
T1 chain: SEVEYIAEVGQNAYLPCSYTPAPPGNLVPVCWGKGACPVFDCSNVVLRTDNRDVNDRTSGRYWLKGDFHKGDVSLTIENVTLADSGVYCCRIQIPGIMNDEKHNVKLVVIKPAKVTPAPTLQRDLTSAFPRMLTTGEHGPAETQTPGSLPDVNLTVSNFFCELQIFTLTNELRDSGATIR
Experiment: ELISA, coated monkey TIM-3 ECD protein, 0 nM antibody
REPORTED ENDPOINT: OD450
Please give only the number in your answer, with no unit.

Known OD450 results, listed for orientation:
134H3G6 fully human TIM-3 antibody (human IgG4, kappa) (antibody, V domains shown) VH: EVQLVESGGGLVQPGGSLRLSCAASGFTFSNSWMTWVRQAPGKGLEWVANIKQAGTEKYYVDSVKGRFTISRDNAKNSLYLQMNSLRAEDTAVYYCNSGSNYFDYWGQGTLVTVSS VL: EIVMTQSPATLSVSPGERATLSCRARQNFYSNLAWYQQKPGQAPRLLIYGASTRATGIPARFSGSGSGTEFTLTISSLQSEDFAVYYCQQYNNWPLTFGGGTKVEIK = 0.13
18D2H2 fully human TIM-3 antibody (human IgG4, kappa) (antibody, V domains shown) VH: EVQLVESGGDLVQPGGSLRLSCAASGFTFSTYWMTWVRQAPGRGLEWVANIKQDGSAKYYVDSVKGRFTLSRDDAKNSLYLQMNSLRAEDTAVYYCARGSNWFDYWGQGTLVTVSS VL: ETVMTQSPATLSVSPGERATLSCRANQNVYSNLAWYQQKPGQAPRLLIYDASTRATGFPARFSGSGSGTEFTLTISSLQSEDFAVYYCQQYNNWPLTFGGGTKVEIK = 0.13

Pending binder:
Req: Param item = 39E5H1 fully human TIM-3 antibody (human IgG4, kappa) (antibody, V domains shown) VH: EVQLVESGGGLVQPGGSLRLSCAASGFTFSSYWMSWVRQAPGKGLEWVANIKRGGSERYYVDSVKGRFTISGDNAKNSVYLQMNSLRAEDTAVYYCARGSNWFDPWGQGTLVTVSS VL: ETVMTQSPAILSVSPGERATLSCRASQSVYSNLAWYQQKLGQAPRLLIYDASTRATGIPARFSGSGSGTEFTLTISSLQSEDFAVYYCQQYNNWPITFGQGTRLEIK ; retrieve measured OD450.
Resp: 0.16

Where these numbers come from: patent US20220033501A1
